test system: MDA-MB-231 breast; assay: NCI-60 one-dose screen, 48 h; conditions: 10 µM unless noted
The panel holds about 83,000 compounds, 20% with a hit somewhere; the sample as a whole holds those more often. Active and inactive are the calls of the source. The calls were made as follows: active = growth percent below 10; inactive = the rest.
Form entry, call: pick from y for active, n for inactive

Lab log entry: `CCCCCCCCn1ccc2cc(NC(=O)Cn3cc(CN4CCN(CC)CC4)nn3)ccc21` — outcome as called in the assay?
n

Lab log entry: `Cn1cc(-c2csc(-c3cn(C)c4ccc(Br)cc34)n2)c2cnccc21` — outcome as called in the assay?
y

Lab log entry: `COc1cc(-c2nc(NC(C)=O)sc2-c2ccnc(NCCNS(=O)(=O)c3ccccc3)n2)ccc1Cl` — outcome as called in the assay?
n

Lab log entry: `COc1cc2c(c(OC)c1OC)C(=O)N[C@@H]1[C@@H](O)[C@@H](O)[C@H](O)C[C@@H]21` — outcome as called in the assay?
n

Lab log entry: `O=C(N/N=C/c1ccc([N+](=O)[O-])cc1)c1ccc2nc(-c3ccc(Cl)cc3)[nH]c2c1` — outcome as called in the assay?
n

Lab log entry: `COc1ccc2c(c1)c(-c1ccc(-c3cn(C)c4ccc(OC)cc34)[nH]1)cn2C` — outcome as called in the assay?
y

Lab log entry: O=P(O)(O)OCC1OC(n2cnc3c(NCc4ccccc4)ncnc32)C(O)C1O (stereo not given) — outcome as called in the assay?
n

Lab log entry: `O=C(Nc1ccccc1O)c1ccccc1Nc1ccnc(C(F)(F)F)c1` — outcome as called in the assay?
n

Lab log entry: `COc1ccc2c(c1)c(-c1cc(-c3cn(C)c4ccc(OC)cc34)on1)cn2C` — outcome as called in the assay?
n

Lab log entry: `COc1ccc(OC)c(-c2cn3nc(-c4c[nH]c5ccc(Br)cc45)sc3n2)c1` — outcome as called in the assay?
y

Lab log entry: `CN(C)Cc1ccc(C(=O)Nc2ccc3ncnc(Nc4ccc(Oc5cccc(F)c5)c(Cl)c4)c3c2)cc1` — outcome as called in the assay?
y

Lab log entry: `CS(=O)(=O)Nc1cncc(-c2ccc3ncnc(Nc4ccc(F)c(Cl)c4)c3c2)c1` — outcome as called in the assay?
n

Lab log entry: `COc1cccc(Nc2ccnc3[nH]c4ccc([N+](=O)[O-])cc4c23)c1` — outcome as called in the assay?
n

Lab log entry: `C=CCn1c(SCC(=O)Nc2ccc(C(=O)/C=C/c3ccc(OC)cc3)cc2)nnc1-c1ccccc1` — outcome as called in the assay?
n

Lab log entry: CC(C)CCC[C@@H](C)C1CCC2C3CCC4=C/C(=N/OCCN(C)C)CC[C@]4(C)C3CC[C@@]21C (stereo not given in full) — outcome as called in the assay?
n

Lab log entry: `N#Cc1nc(-c2ccc(F)cc2)oc1S(=O)(=O)N1CCN(c2ccc(F)cc2)CC1` — outcome as called in the assay?
n

Lab log entry: `Cc1cccc(NC(=O)CSc2nc3ccc([N+](=O)[O-])cc3[nH]2)c1` — outcome as called in the assay?
n

Lab log entry: COC(c1ccc2ccccc2c1)C(C)C(F)F (stereo not given) — outcome as called in the assay?
n

Lab log entry: `N#Cc1c(NC(=O)c2cccs2)[n+]([O-])c2ccc(Cl)cc2[n+]1[O-]` — outcome as called in the assay?
n

Lab log entry: `COc1ccc(-c2oc(=O)ccc2-c2cc(OC)c(OC)c(OC)c2)cc1O` — outcome as called in the assay?
n

Lab log entry: NC(CSC(c1ccccc1)(c1ccccc1)c1ccc2c(c1)OCO2)C(=O)O (stereo not given) — outcome as called in the assay?
n

Lab log entry: `COc1cc(-c2nc3ccc(C)cc3[nH]2)ccc1OCC(=O)N=Nc1c(O)[nH]c2ccc(Cl)cc12` — outcome as called in the assay?
y

Lab log entry: `Cc1ccc(/C=C2\CN(C(=O)C(Cl)Cl)C/C(=C\c3ccc(C)cc3)C2=O)cc1` — outcome as called in the assay?
y

Lab log entry: `COC(=O)/C=C1/SC(=Nc2cccc(Cl)c2)N(CCc2c[nH]c3ccc(O)cc23)C1=O` — outcome as called in the assay?
n

Lab log entry: `O=C1NC(=O)c2c1c1c3ccccc3[nH]c1c1oc3ccc(F)cc3c21` — outcome as called in the assay?
n

Lab log entry: `O=C(O)c1cn(C2CC2)c2cc(N3CCN(C(=O)N/N=C/c4ccccc4)CC3)c(F)cc2c1=O` — outcome as called in the assay?
n

Lab log entry: `COc1ccc2cc(Cn3cc[n+](Cc4ccc5ccccc5c4)c3)ccc2c1` — outcome as called in the assay?
n

Lab log entry: COc1ccc(NC(=O)c2sc3nc(C)c(C(O)c4ccccc4)cc3c2N)cc1 (stereo not given) — outcome as called in the assay?
n

Lab log entry: CC(O)c1ncc(/C=C2\SC(=S)N(Cc3ccccc3)C2=O)s1 (stereo not given) — outcome as called in the assay?
n

Lab log entry: `O=C1NC(=C(Cl)Cl)/C(=N/S(=O)(=O)N2CCCCC2)N1` — outcome as called in the assay?
y

====

tested on: HS 578T breast; test: NCI-60 one-dose screen, 48 h (100 = growth as untreated, 0 = no growth, -100 = all killed); details: 10 µM unless noted
About 83,000 compounds went through this panel and 20% of them were active in at least one assay; those are over-represented in the sample as a whole.
For each of the compounds below, state its growth.
Entry rule: numbers only, all in %.

So what does the record say about growth for `COc1cccc2c(N=NC(=O)c3ccc(S(N)(=O)=O)cc3)c(O)[nH]c12` ?
101

So what does the record say about growth for `CCOC(=O)NN1CC(O)=C(c2nc(-c3ccc(Br)cc3)cs2)C1=N` ?
110

So what does the record say about growth for `O=C(NCc1ccccc1O)c1cccc2ccccc12` ?
66.5

So what does the record say about growth for `Cn1cc(-c2csc(-c3cn(C(=O)OC(C)(C)C)c4ccccc34)n2)c2ccnc(Cl)c21` ?
66.1

So what does the record say about growth for `c1ccc(CNc2ccc3nc(CCC4CCCCC4)[nH]c3c2)cc1` ?
80.9

So what does the record say about growth for `CCOC(=O)C(=Cc1cccc(C#N)c1)C(=O)OCC` ?
93.9

So what does the record say about growth for O=c1[nH]cnc2c1C(c1ccc(Br)cc1)c1sc3c(F)cccc3c1O2 (stereo not drawn) ?
85.2

So what does the record say about growth for Cc1c(N2CN3C[C@H](C)N4CN(c5c(C)n(C)n(-c6ccccc6)c5=O)CN5C[C@@H](C)N(C2)C3C54)c(=O)n(-c2ccccc2)n1C (stereo partly drawn) ?
95.9

So what does the record say about growth for `O=c1[nH]c(-c2ccc(Cl)cc2)cn1-c1ccc(-n2cc(-c3ccc(Cl)cc3)[nH]c2=O)cc1` ?
102

So what does the record say about growth for COc1ccc(NC(=O)c2cccc(C3CCc4c(cc(OC)c(OC)c4OC)O3)c2)cc1 (stereo not drawn) ?
22

So what does the record say about growth for `Clc1ccc(-c2cn3ccsc3n2)c(Cl)c1Cl` ?
84.3

So what does the record say about growth for O=C1OCC2=C1C(c1cccc(C(F)(F)F)c1)c1cc3c(cc1N2CCO)OCO3 (stereo not drawn) ?
31.4

So what does the record say about growth for `CN(C)c1ccc(/C=C/C(=O)c2ccccc2)cc1` ?
98.4

So what does the record say about growth for `CCOC(=O)C1CCN(c2ccc(N3C[C@@H](CNCc4ccc(C(=N)N)cc4)OC3=O)cc2)CC1` ?
102

So what does the record say about growth for `S=c1ssnc1-c1cccs1` ?
46.6

So what does the record say about growth for `COc1cccc(/C=C2\COc3ccc(O)cc3C2=O)c1` ?
91.1

So what does the record say about growth for `CCc1ccc(CCC(=O)Nc2ncc(Cc3ccc(Cl)cc3)s2)o1` ?
2.63

So what does the record say about growth for `CS(=O)(=O)Nc1cc(-c2ccc3ncnc(Nc4ccc5c(cnn5Cc5cccnc5)c4)c3c2)cnc1Cl` ?
-2.21

So what does the record say about growth for `Cc1c2cc[nH]c(=O)c2c(C)c2c1[nH]c1ccc(OC(=O)c3ccccc3)cc12` ?
19.3

So what does the record say about growth for `CCC(CC)(N(CC(=O)O)CC(=O)O)C(CC)(CC)N(CC(=O)O)CC(=O)O` ?
118

So what does the record say about growth for `O=C(Nc1ncc(Cc2ccccc2Cl)s1)c1cccs1` ?
74.4

So what does the record say about growth for `Oc1c(CN2CCCC2)cc(COCc2ccccc2)c2cccnc12` ?
64.5

So what does the record say about growth for `CCN(CC)c1ccc(N2C(=O)/C(=C/c3cccs3)SC2=S)cc1` ?
103

So what does the record say about growth for CCn1cc(C(=O)N/N=C/c2ccc(Br)cc2)c(=O)c2cc(F)c(N3CCNC(C)C3)c(F)c21 (stereo not drawn) ?
73

So what does the record say about growth for `C=CC(=O)NCCOc1cccc(Nc2cc(NCCCNC(=O)C3CCC3)c(Br)cn2)c1` ?
-18.4

So what does the record say about growth for `CNC(=O)c1cc(Oc2ccc3nc(NC(=O)Nc4ccc(Cl)c(Cl)c4)sc3c2)ccn1` ?
-2.92

So what does the record say about growth for `CC1(C)OC(=O)C(=Cc2cccc(Br)c2)C(=O)O1` ?
90.8

So what does the record say about growth for `CCOC(=O)N1CCN(S(=O)(=O)c2oc(-c3ccc(Cl)cc3)nc2C#N)CC1` ?
102

So what does the record say about growth for `CCn1cc(CNc2ccc(C(=O)Nc3cc4cc(OC)c(OC)cc4c(C)n3)cc2)c(C)n1` ?
82.7

So what does the record say about growth for `O=C(Nc1cccc(NC(=O)C2CCCCC2)c1)c1ccccn1` ?
111

So what does the record say about growth for `CN1CCN(Cc2ccc(NC(=O)c3cncc(C#Cc4cnn5ccccc45)c3)cc2C(F)(F)F)CC1` ?
-15.4

So what does the record say about growth for CCN1C(=O)N(CC)C2C1NN=C1SCC(=O)N12 (stereo not drawn) ?
98.4

So what does the record say about growth for Cc1nc2sc(C(=O)Nc3cccc(Cl)c3)c(N)c2cc1C(O)c1ccccc1 (stereo not drawn) ?
19

So what does the record say about growth for `Cc1[nH]c(/C=C/C(=O)c2ccc(C(F)(F)F)c(F)c2)c(C)c1C(=O)NCC(C)C` ?
97.9

So what does the record say about growth for `COc1cc(C(=O)c2c(N)ncn2-c2ccccc2)cc(OC)c1OC` ?
98.5

So what does the record say about growth for `CCN(CC)S(=O)(=O)c1ccc(S(=O)(=O)N2CCC[C@@H](C(=O)N3CCN(C(=O)OC(C)(C)C)CC3)C2)cc1` ?
87.2

So what does the record say about growth for `Cn1c(=O)c2c(nc(NC3=NS(=O)(=O)c4ccccc43)n2Cc2ccccc2)n(C)c1=O` ?
96.5

So what does the record say about growth for `Cc1ccc(Nc2nc(-c3ccc(F)cc3)c(C#N)c(=O)n2C)cc1` ?
44.8

So what does the record say about growth for O=C1CCC(C(=O)NN(c2ccccc2)c2ccccc2)N1 (stereo not drawn) ?
95.8

So what does the record say about growth for `O=C(N/N=C/c1ccc(Cl)cc1Cl)c1ccc2nc(-c3ccc(Cl)cc3)[nH]c2c1` ?
33

So what does the record say about growth for `O=C(Nc1ccc(F)cc1)Nc1ccccc1CNc1nc(Nc2ccc(OCCN3CCCC3)cc2)ncc1Cl` ?
74.3

So what does the record say about growth for `N#Cc1c(-c2ccccc2)nc2c(c(-c3ccccc3)nn2-c2ccccc2)c1-c1ccc(N2CCOCC2)cc1` ?
104

So what does the record say about growth for `CCOC(=O)/C=C/c1c(C)[nH]c(=O)[nH]c1=O` ?
105
